System: GABA-binding site of the GABA-A receptor
Assay: Displacement of tritiated muscimol from brain membranes
Conditions: 100 μM
Measured Displacement of muscimol values are reported for all entries that follow.

COc1cc2c(cc1OC)[C@H]([C@@H]1CCC(=O)O1)N(C(=O)OCc1ccccc1)CC2 (racemic); 100 μM = 0%
COc1cc2c(cc1OC)C(C1C=C(C)C(=O)O1)N(C(=O)OCc1ccccc1)CC2 (racemic) [Compound 46]; 100 μM = 0%
COc1cc2c(cc1OC)C(C1C=CC(=O)O1)NCC2 (racemic); 20%

# context switch: different molecule, same Displacement of muscimol
Asked: Query (molecule): O=C1C=CC(C2c3ccccc3CCN2C(=O)OCc2ccccc2)O1 (racemic) [Compound 50] ; field requested: Displacement of muscimol
Given back: 100 μM = 0%

* * *

Biological target: benzodiazepine-binding site of the GABA-A receptor (Rattus norvegicus, UniProt P18508+P62813)
Construct: IC50 Flu / BZ receptor; other: cerebellum (ce); other: cerebellum (ce; BZ1 subtype); other: 10 μM; cerebellum; other: 100 μM; other: 0.5 μM
Sequence (P62813 28-455): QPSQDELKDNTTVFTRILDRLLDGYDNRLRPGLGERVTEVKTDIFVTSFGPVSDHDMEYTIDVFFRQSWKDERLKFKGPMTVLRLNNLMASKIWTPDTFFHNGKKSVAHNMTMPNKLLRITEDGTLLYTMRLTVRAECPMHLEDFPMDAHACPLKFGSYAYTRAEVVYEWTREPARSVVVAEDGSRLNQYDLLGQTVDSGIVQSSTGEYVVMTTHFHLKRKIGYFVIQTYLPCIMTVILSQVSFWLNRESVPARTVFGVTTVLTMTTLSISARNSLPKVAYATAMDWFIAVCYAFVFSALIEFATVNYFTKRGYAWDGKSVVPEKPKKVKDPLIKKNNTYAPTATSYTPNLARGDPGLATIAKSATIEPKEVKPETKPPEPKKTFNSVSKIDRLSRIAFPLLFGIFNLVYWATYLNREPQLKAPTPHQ
Sequence (P18508 39-466): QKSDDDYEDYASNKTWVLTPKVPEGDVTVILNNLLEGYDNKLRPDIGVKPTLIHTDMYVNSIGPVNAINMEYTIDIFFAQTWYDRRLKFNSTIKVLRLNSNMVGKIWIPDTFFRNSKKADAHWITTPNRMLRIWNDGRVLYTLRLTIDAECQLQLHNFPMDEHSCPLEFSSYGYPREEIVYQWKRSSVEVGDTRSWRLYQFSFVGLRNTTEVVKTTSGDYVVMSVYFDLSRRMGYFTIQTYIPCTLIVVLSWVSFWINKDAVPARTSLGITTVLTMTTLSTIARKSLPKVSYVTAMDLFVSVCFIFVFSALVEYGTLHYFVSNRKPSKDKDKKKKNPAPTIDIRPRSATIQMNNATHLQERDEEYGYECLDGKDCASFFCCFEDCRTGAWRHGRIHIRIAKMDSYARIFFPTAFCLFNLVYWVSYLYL
Sequence (P63138 26-474 partner): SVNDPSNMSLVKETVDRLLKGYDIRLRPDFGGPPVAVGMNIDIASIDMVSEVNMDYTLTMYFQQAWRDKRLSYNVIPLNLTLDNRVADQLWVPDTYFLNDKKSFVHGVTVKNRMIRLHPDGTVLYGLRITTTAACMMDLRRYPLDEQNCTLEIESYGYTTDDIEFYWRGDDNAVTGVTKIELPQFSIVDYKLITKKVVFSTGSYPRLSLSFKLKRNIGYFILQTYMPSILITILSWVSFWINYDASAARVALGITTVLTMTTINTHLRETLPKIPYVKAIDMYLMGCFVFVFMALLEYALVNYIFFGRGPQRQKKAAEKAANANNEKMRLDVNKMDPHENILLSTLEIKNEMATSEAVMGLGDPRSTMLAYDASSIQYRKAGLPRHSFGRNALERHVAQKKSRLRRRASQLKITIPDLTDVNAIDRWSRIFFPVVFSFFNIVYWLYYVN
Assay: Displacement of tritiated flunitrazepam from brain membranes
Settings: 100 μM; tissue not stated
# Lookup of reported Inhibition of the tritiated ligands % Flu (100 μM) keyed by entry
Express the result in % but write the number alone.

Asked: I'd like to know its Inhibition of the tritiated ligands % Flu (100 μM). The compound in question is COc1cc2c(cc1OC)C(C1C=C(C)C(=O)O1)N(C(=O)OCc1ccccc1)CC2 (racemic) [Compound 46]
Given back: 0

Asked: Dear colleague, I am looking for the recorded Inhibition of the tritiated ligands % Flu (100 μM) of the following compound: Cc1ccc(S(=O)(=O)N2C=Cc3ccccc3C2[C@H]2CCC(=O)O2)cc1 (mixture of isomers)
Given back: 0

* * *

System: GABA-binding site of the GABA-A receptor
Experiment: Displacement of tritiated muscimol from brain membranes
Details: 100 μM; stimulation instead of displacement
reportedMetric: Muscimol: stimulation

Example molecules with recorded Muscimol: stimulation:
Cc1ccc(S(=O)(=O)N2C=Cc3ccccc3C2[C@H]2CCC(=O)O2)cc1 (mixture of isomers) [Compound 76]; 20% stimulation at 100 μM
O=C1C=CC(C2c3ccccc3CCN2C(=O)Oc2ccccc2)O1 (racemic) [Compound 57]; 10-20%

Asked: Tell me the measured Muscimol: stimulation of O=C1C=CC(C2c3cc4c(cc3CCN2C(=O)OCc2ccccc2)OCO4)O1 (racemic) [Compound 44] , please.
Given back: 10%

* * *

The reader will find reported inhibition at 100 µM values listed item by item below.
Target: benzodiazepine-binding site of the GABA-A receptor (Rattus norvegicus, UniProt P18508+P62813)
Construct: IC50 Flu / BZ receptor; other: cerebellum (ce); other: cerebellum (ce; BZ1 subtype); other: 10 μM; cerebellum; other: 100 μM; other: 0.5 μM
Experiment: Displacement of tritiated flunitrazepam from brain membranes
Conditions: 100 μM; tissue not stated; read-out: Inhibition of the tritiated ligands % Flu (100 μM)
Give the quantity in %, number only.

Example results:
O=C1C=C[C@H]([C@H]2c3ccccc3CCN2C(=S)Oc2ccccc2)O1 (racemic) [Compound 63]; 0
COc1cc2c(cc1OC)C(C1C=CC(=O)O1)NCC2 (racemic) [Compound 42]; 30
O=C1C=C[C@@H]([C@H]2c3ccccc3CCN2C(=S)Oc2ccccc2)O1 (racemic) [Compound 64]; 0
COc1cc2c(cc1OC)C(C1CCC(=O)O1)N(C(=O)OCc1ccccc1)CC2 (racemic) [Compound 48]; 35

Asked: Can you share its inhibition at 100 µM? I mean this compound: COc1cc2c(cc1OC)C(C1CCC(=O)O1)N(C)CC2 (racemic) [Compound 28]
Given back: 50

Source listed as patent US6649626B1.
